- Tested on: Plasmodium falciparum chloroquine-susceptible strain D6
- test: In vitro antimalarial drug susceptibility assay (radiolabeled hypoxanthine incorporation), strain D6
- Format: cell-based
- test-context: Plasmodium falciparum, D6, 66 h, read-out: Strain D6 IC50, growth inhibition, chloroquine-susceptible strain D6, 66 h incubation
endpoint-name: log10 IC50 (log10 of the value in mg/L)
The figures below represent log10 of IC50, where IC50 is stated in mg/L.

[
  {
    "compound": "COC(=O)CNC(=O)CCC(C)[C@H]1CCC2C3C(C[C@H](OC(C)=O)[C@@]21C)[C@@]1(C)CCC2(C[C@H]1C[C@H]3OC(C)=O)OOC1(CCCCC1)OO2 (some centres unmarked)",
    "log10 IC50": -1.82
  },
  {
    "compound": "CCCNC(=O)CCC(C)[C@H]1CCC2C3C(C[C@H](OC(C)=O)[C@@]21C)[C@@]1(C)CCC2(C[C@H]1C[C@H]3OC(C)=O)OOC1(CCCCC1C)OO2 (some centres unmarked)",
    "log10 IC50": -2.05
  },
  {
    "compound": "CCNC(=O)CCC(C)[C@H]1CCC2C3C(C[C@H](OC(C)=O)[C@@]21C)[C@@]1(C)CCC2(C[C@H]1C[C@H]3OC(C)=O)OOC1(CCCCC1C)OO2 (some centres unmarked)",
    "log10 IC50": -2.08
  },
  {
    "compound": "CNC(=O)CCC(C)[C@H]1CCC2C3C(C[C@H](OC(C)=O)[C@@]21C)[C@@]1(C)CCC2(C[C@H]1C[C@H]3OC(C)=O)OOC1(CCCCC1C)OO2 (some centres unmarked)",
    "log10 IC50": -1.99
  }
]

Shift focus to the following entry.
Per the record, COC(=O)CCC(C)[C@H]1CCC2C3C(C[C@H](OC(C)=O)[C@@]21C)[C@@]1(C)CCC2(C[C@H]1C[C@H]3OC(C)=O)OOC1(CC(C)CCC1C(C)C)OO2 (some centres unmarked) has log10 IC50 of -0.97

* * *

- System: M. tuberculosis H37Rv
- test: Minimum inhibitory concentration (MIC) in the MABA
- Format: cell-based, Mycobacterium tuberculosis
- test-context: Mycobacterium tuberculosis, H37RV, Table 3; H37Rv; read-out: MIC
endpoint-name: MIC (µg/mL)
Answers are plain numbers, in µg/mL.

Per the record, CC(=O)O[C@H]1CC2C(C3CC[C@H](C(C)CCC(=O)O)[C@]31C)[C@H](OC(C)=O)C[C@@H]1CC3(CC[C@]21C)OOC1(CCC(c2ccccc2)CC1)OO3 (single isomer, unassigned) has MIC of 6.25

* * *

- Tested on: Mycobacterium tuberculosis H37Rv (ATCC 27294)
- test: Primary screen, Microplate Alamar Blue Assay (MABA), percent inhibition
- Assay type: cell-based
- test-context: Mycobacterium tuberculosis, Table 5; Alamar assay, primary screening at 6.25 μg/ml; read-out: % Inhib
endpoint-name: inhibition at 6.25 µg/mL (%)
Answers are plain numbers, in %.

[
  {
    "compound": "CCCNC(=O)CCC(C)[C@H]1CCC2C3C(C[C@H](OC(C)=O)[C@@]21C)[C@@]1(C)CCC2(C[C@H]1C[C@H]3OC(C)=O)OOC1(CCC(c3ccccc3)CC1)OO2 (single isomer, unassigned)",
    "target-under-test": "Mycobacterium tuberculosis H37Rv (ATCC 27294)",
    "inhibition at 6.25 µg/mL, %": 46
  },
  {
    "compound": "COC(=O)CCC(C)[C@H]1CCC2C3C(C[C@H](OC(C)=O)[C@@]21C)[C@@]1(C)CCC2(C[C@H]1C[C@H]3OC(C)=O)OOC1(CCCCC1C)OO2 (stereo partly drawn)",
    "target-under-test": "Mycobacterium tuberculosis H37Rv (ATCC 27294)",
    "inhibition at 6.25 µg/mL, %": 29
  }
]

Shift focus to the following entry.
Record for CCCNC(=O)CCC(C)[C@H]1CCC2C3C(C[C@H](OC(C)=O)[C@@]21C)[C@@]1(C)CCC2(C[C@H]1C[C@H]3OC(C)=O)OOC1(CCCCC1C)OO2 (stereo partly drawn) under target or system Mycobacterium tuberculosis H37Rv (ATCC 27294): inhibition at 6.25 µg/mL reported as 87

* * *

- Test system: M. tuberculosis H37Rv
- test: Minimum inhibitory concentration (MIC) in the MABA
- Type: cell-based, Mycobacterium tuberculosis
- test-context: Table 5; Alamar assay, M. tuberculosis H37Rv
Kindly state MIC for each of the entries shown.
Give bare numbers, in µg/mL.

Below are worked cases with known answers.
[
  {
    "molecule": "CCC1CCC2(CC1)OOC1(CC[C@]3(C)C4C[C@H](OC(C)=O)[C@@]5(C)C(CC[C@@H]5C(C)CCC(=O)NC)C4[C@H](OC(C)=O)C[C@@H]3C1)OO2 (single isomer, unassigned) [30/1C41]",
    "MIC (µg/mL)": 3.13
  },
  {
    "molecule": "CNC(=O)CCC(C)[C@H]1CCC2C3C(C[C@H](OC(C)=O)[C@@]21C)[C@@]1(C)CCC2(C[C@H]1C[C@H]3OC(C)=O)OOC1(CCC(C)CC1)OO2 (stereo partly drawn) [22/1C31]",
    "MIC (µg/mL)": 6.25
  },
  {
    "molecule": "CCC1CCC2(CC1)OOC1(CC[C@]3(C)C4C[C@H](OC(C)=O)[C@@]5(C)C(CC[C@@H]5C(C)CCC(=O)NC)C4[C@H](OC(C)=O)C[C@@H]3C1)OO2 (single isomer, unassigned) [26/1C36]",
    "MIC (µg/mL)": 1.56
  }
]

Per the record, CCNC(=O)CCC(C)[C@H]1CCC2C3C(C[C@H](OC(C)=O)[C@@]21C)[C@@]1(C)CCC2(C[C@H]1C[C@H]3OC(C)=O)OOC1(CCC(CC)CC1)OO2 (single isomer, unassigned) [27/1C37] has MIC of 1.56

* * *

- Test system: Plasmodium falciparum chloroquine-resistant strain W2
- test: microbe, parasite or virus in culture
- Assay type: cell-based
- test-context: growth inhibition, chloroquine-resistant strain W2, 66 h incubation
Short version: Strain W2 IC50 at least 8 ng/mL is yes, less is no.

Field: example entries. Status: answers known.
[
  {
    "molecule": "CCC1CCC2(CC1)OOC1(CC[C@]3(C)C4C[C@H](OC(C)=O)[C@@]5(C)C(CC[C@@H]5C(C)CCC(=O)NC)C4[C@H](OC(C)=O)C[C@@H]3C1)OO2 (single isomer, unassigned)",
    "label-class": "no"
  },
  {
    "molecule": "CC(=O)O[C@H]1CC2C(C3CC[C@H](C(C)CCC(=O)O)[C@]31C)[C@H](OC(C)=O)C[C@@H]1CC3(CC[C@]21C)OOC1(CCC(C)CC1)OO3 (stereo partly drawn) [9g/1C17]",
    "label-class": "no"
  },
  {
    "molecule": "CNC(=O)CCC(C)[C@H]1CCC2C3C(C[C@H](OC(C)=O)[C@@]21C)[C@@]1(C)CCC2(C[C@H]1C[C@H]3OC(C)=O)OOC1(CCC(C)CC1)OO2 (stereo partly drawn) [22/1C31]",
    "label-class": "no"
  },
  {
    "molecule": "CNC(=O)CCC(C)[C@H]1CCC2C3C(C[C@H](OC(C)=O)[C@@]21C)[C@@]1(C)CCC2(C[C@H]1C[C@H]3OC(C)=O)OOC1(CCC(C)CC1)OO2 (stereo partly drawn) [18/1C27]",
    "label-class": "no"
  },
  {
    "molecule": "CCNC(=O)CCC(C)[C@H]1CCC2C3C(C[C@H](OC(C)=O)[C@@]21C)[C@@]1(C)CCC2(C[C@H]1C[C@H]3OC(C)=O)OOC1(CCC(CC)CC1)OO2 (single isomer, unassigned)",
    "label-class": "yes"
  },
  {
    "molecule": "COC(=O)CCC(C)[C@H]1CCC2C3C(C[C@H](OC(C)=O)[C@@]21C)[C@@]1(C)CCC2(C[C@H]1C[C@H]3OC(C)=O)OOC1(CCC(C)CC1)OO2 (mixture of isomers) [8g/1B08a]",
    "label-class": "no"
  },
  {
    "molecule": "CCCNC(=O)CCC(C)[C@H]1CCC2C3C(C[C@H](OC(C)=O)[C@@]21C)[C@@]1(C)CCC2(C[C@H]1C[C@H]3OC(C)=O)OOC1(CCC(CC)CC1)OO2 (single isomer, unassigned) [32/1C43]",
    "label-class": "yes"
  }
]

Attention now shifts to the item below.
Would you say COC(=O)CCC(C)[C@H]1CCC2C3C(C[C@H](OC(C)=O)[C@@]21C)[C@@]1(C)CCC2(C[C@H]1C[C@H]3OC(C)=O)OOC1(CCC(c3ccccc3)CC1)OO2 (single isomer, unassigned) [Compound 1B14a] shows Strain W2 IC50 at minimum 8 ng/mL?
yes
